Species: Bos taurus
methodSummary: Agonist activity at GPER in BCAEC assessed as increase in nitric oxide production at 1 uM incubated for 10 mins by nitrate/nitrite fluorometric assay relative to untreated (-)-epicatechin
recordedEndpoint: Activity (%)

>>> reportedvalue("C#CCO[C@@H]1Cc2c(O)cc(O)cc2O[C@@H]1c1ccc(O)c(O)c1")
142
>>> reportedvalue("C#CCOc1cc(OCC#C)c2c(c1)O[C@H](c1ccc(OCC#C)c(OCC#C)c1)[C@H](O)C2")
107

[A] C#CCOc1cc(OCC#C)c2c(c1)O[C@H](c1ccc(OCC#C)c(OCC#C)c1)[C@H](OCC#C)C2
[B] CS(=O)(=O)O[C@@H]1Cc2c(O)cc(O)cc2O[C@@H]1c1ccc(O)c(O)c1
Inquiry: Determine, for A and B , which has the greater value of Activity. When you have decided, please share the label of that item.
Reply text: A
(A: 102%, B: 54.5%)
